tested on: JU-77 mesothelioma cells; assay: Chou-Talalay combination assay, Cell Titer Glo; format: cell-based; details: combination with pyrvinium pamoate, 72 hour incubation
# CI range listing for each entry below

compound: COc1cccc2c1C(=O)c1c(O)c3c(c(O)c1C2=O)C[C@@](O)(C(=O)CO)C[C@@H]3O[C@H]1C[C@H](N)[C@H](O)[C@H](C)O1 [Doxorubicin]
target of assay: JU-77 mesothelioma cells
CI range: 0.444-0.889
--
compound: CCC1=C[C@@H]2CN(C1)Cc1c([nH]c3ccccc13)[C@@](C(=O)OC)(c1cc3c(cc1OC)N(C)[C@H]1[C@@](O)(C(=O)OC)[C@H](OC(C)=O)[C@]4(CC)C=CCN5CC[C@]31[C@@H]54)C2 [Vinorelbine]
target of assay: JU-77 mesothelioma cells
CI range: 0.454-0.717
--
compound: Nc1ccn([C@@H]2O[C@H](CO)[C@@H](O)C2(F)F)c(=O)n1 [Gemcitabine]
target of assay: JU-77 mesothelioma cells
CI range: 0.404-0.725
--
compound: N.N.O=C([O-])C1(C(=O)[O-])CCC1.[Pt+2] [Carboplatin]
target of assay: JU-77 mesothelioma cells
CI range: 0.385-0.853

###

system: SK-N-AS neuroblastoma cells; experiment: Chou-Talalay combination assay, Cell Titer Glo; assay type: cell-based; details: SK-N-AS; combination with pyrvinium pamoate; 72 hour incubation

compound: N.N.O=C([O-])C1(C(=O)[O-])CCC1.[Pt+2] [Carboplatin]
CI range: 0.107-0.843
//
compound: CC(=O)O[C@H]1C(=O)[C@@]2(C)[C@H]([C@H](OC(=O)c3ccccc3)[C@]3(O)C[C@H](OC(=O)[C@H](O)[C@@H](NC(=O)c4ccccc4)c4ccccc4)C(C)=C1C3(C)C)[C@]1(OC(C)=O)CO[C@@H]1C[C@@H]2O [Paclitaxel]
CI range: 0.367-0.857
//
compound: COc1cc([C@@H]2c3cc4c(cc3[C@@H](O[C@@H]3O[C@@H]5CO[C@@H](C)O[C@H]5[C@H](O)[C@H]3O)[C@H]3COC(=O)[C@H]23)OCO4)cc(OC)c1O [Etoposide]
CI range: 0.638-0.834
//
compound: N.N.[Cl][Pt][Cl] [Cisplatin]
CI range: 0.130-0.882

###

system: CHP-212 neuroblastoma cells; assay: Chou-Talalay combination assay, Cell Titer Glo; format: cell-based; settings: combination with pyrvinium pamoate, 72 hour incubation

compound: CCc1c2c(nc3ccc(OC(=O)N4CCC(N5CCCCC5)CC4)cc13)-c1cc3c(c(=O)n1C2)COC(=O)[C@]3(O)CC [Irinotecan]
target of assay: CHP-212 neuroblastoma cells
CI range: 0.719-0.891
//
compound: N.N.[Cl][Pt][Cl] [Cisplatin]
target of assay: CHP-212 neuroblastoma cells
CI range: 0.694-0.756
//
compound: O=P1(N(CCCl)CCCl)NCCCO1 (stereo not shown) [Cyclophosphamide]
target of assay: CHP-212 neuroblastoma cells
CI range: 0.256-0.876
//
compound: N.N.O=C([O-])C1(C(=O)[O-])CCC1.[Pt+2] [Carboplatin]
target of assay: CHP-212 neuroblastoma cells
CI range: 0.519-0.846
